# test.summary: in vivo
# applied.conditions: NIH-III nude, mouse, plasma, iv, 18.6 mg/kg
test.readout: AUC (µM·h)
Write the value in µM·h as a bare number.

Incoming: Recorded AUC for c1c2c(cc3nc(CCCN4CCOCC4)nnc13)CCC2 , please?
Outgoing: 0.146

###

Measured Cmax by item
# applied.conditions: i.p. SN30000 186 mg/kg; liver, HT29 tumour-bearing mice
Write the value in µmol/kg as a bare number.

Worked examples follow.
INSERT INTO assay_data (smiles_repr, test_readout, numeric_result) VALUES
  ('[O-][n+]1nc(CCCN2CCOCC2)[n+]([O-])c2cc3c(cc21)CCC3', 'Cmax', 172),
  ('[O-][n+]1nc(CCCN2CCOCC2)nc2cc3c(cc21)CCC3', 'Cmax', 371),
  ('O=C(O)CCc1nc2cc3c(cc2[n+]([O-])n1)CCC3', 'Cmax', 46.1);

Incoming: Recorded Cmax for c1c2c(cc3nc(CCCN4CCOCC4)nnc13)CCC2 , please?
Outgoing: 155.4

###

# test.summary: in vivo
# applied.conditions: female, NIH-III nude, mouse, plasma, ip, T1/2, co-administered with SN30000 92.8 mg/kg i.p.
test.readout: half-life (min)
Write the value in min as a bare number.

Incoming: Recorded half-life for OC[C@@H](O)[C@@H](O)[C@H](O)[C@H](O)CO [Mannitol, mannitol] , please?
Outgoing: 24.6

###

# test.summary: in vivo
# applied.conditions: NIH-III, mouse, in vivo, ip, 18.6 mg/kg
test.readout: half-life (min)
Write the value in min as a bare number.

INSERT INTO assay_data (molecule, numeric_result) VALUES
  ('[O-][n+]1nc(CCCN2CCOCC2)[n+]([O-])c2cc3c(cc21)CCC3 [SN30000]', 25),
  ('O=C(O)CCc1nc2cc3c(cc2[n+]([O-])n1)CCC3 [M18]', 220);

Incoming: Recorded half-life for [O-][n+]1nc(CCCN2CCOCC2)nc2cc3c(cc21)CCC3 [M14] , please?
Outgoing: 32.5

###

Measured AUC by item
# test.summary: in vivo
# applied.conditions: NIH-III, mouse, in vivo, ip, 92.8 mg/kg
Write the value in µM·h as a bare number.

Worked examples follow.
INSERT INTO measurements (smiles_repr, numeric_result) VALUES
  ('[O-][n+]1nc(CCCN2CCOCC2)[n+]([O-])c2cc3c(cc21)CCC3', 49.2),
  ('[O-][n+]1nc(CCCN2CCOCC2)nc2cc3c(cc21)CCC3', 10.8);

Then there is this molecule:
Incoming: Recorded AUC for O=C(O)CCc1nc2cc3c(cc2[n+]([O-])n1)CCC3 , please?
Outgoing: 116

###

Measured half-life by item
# test.summary: in vivo
# applied.conditions: NIH-III, mouse, in vivo, ip, 186 mg/kg, Terminal T1/2, i.p. SN30000 186 mg/kg; plasma, HT29 tumour-bearing mice
Write the value in min as a bare number.

INSERT INTO measurements (compound, numeric_result) VALUES
  ('O=C(O)CCc1nc2cc3c(cc2[n+]([O-])n1)CCC3 [M18]', 960),
  ('[O-][n+]1nc(CCCN2CCOCC2)nc2cc3c(cc21)CCC3 [M14]', 40.6);

Incoming: Recorded half-life for [O-][n+]1nc(CCCN2CCOCC2)[n+]([O-])c2cc3c(cc21)CCC3 [SN30000] , please?
Outgoing: 33.9

###

Measured half-life by item
# test.summary: in vivo
# applied.conditions: NIH-III, mouse, in vivo, ip, 1.86 mg/kg

Incoming: Recorded half-life for O=C(O)CCc1nc2cc3c(cc2[n+]([O-])n1)CCC3 , please?
Outgoing: 102 min

Incoming: Recorded half-life for [O-][n+]1nc(CCCN2CCOCC2)nc2cc3c(cc21)CCC3 , please?
Outgoing: 29.5 min

Incoming: Recorded half-life for [O-][n+]1nc(CCCN2CCOCC2)[n+]([O-])c2cc3c(cc21)CCC3 , please?
Outgoing: 20.8 min

###

# test.target: mouse brain acetylcholinesterase (Mus musculus, UniProt P21836)
# Sequence (P21836 32-614): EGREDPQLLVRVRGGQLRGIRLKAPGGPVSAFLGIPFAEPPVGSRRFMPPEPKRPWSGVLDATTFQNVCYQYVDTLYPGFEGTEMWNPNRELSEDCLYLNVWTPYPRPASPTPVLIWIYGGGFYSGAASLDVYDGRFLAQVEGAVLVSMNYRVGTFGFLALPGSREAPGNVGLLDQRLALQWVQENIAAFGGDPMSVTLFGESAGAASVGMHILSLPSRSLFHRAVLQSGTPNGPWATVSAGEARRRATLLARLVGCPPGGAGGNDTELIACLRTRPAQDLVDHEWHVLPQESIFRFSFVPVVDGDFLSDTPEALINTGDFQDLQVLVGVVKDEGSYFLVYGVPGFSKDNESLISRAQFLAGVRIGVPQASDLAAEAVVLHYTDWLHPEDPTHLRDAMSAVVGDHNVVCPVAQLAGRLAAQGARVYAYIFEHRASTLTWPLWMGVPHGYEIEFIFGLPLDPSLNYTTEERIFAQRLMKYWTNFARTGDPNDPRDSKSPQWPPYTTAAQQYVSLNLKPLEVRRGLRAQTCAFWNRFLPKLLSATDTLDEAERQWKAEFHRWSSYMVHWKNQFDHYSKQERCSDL
test.readout: IC50 (µM)
Write the value in µM as a bare number.

Incoming: Recorded IC50 for [O-][n+]1nc(CCCN2CCOCC2)[n+]([O-])c2cc3c(cc21)CCC3 , please?
Outgoing: 131

###

Measured half-life by item
# test.summary: in vivo
# applied.conditions: NIH-III, mouse, in vivo, ip, 186 mg/kg, Terminal T1/2, i.p. SN30000 186 mg/kg; brain, non-tumour-bearing mice
Write the value in min as a bare number.

INSERT INTO assay_data (smiles_repr, numeric_result) VALUES
  ('[O-][n+]1nc(CCCN2CCOCC2)nc2cc3c(cc21)CCC3', 32.1);

Then there is this molecule:
Incoming: Recorded half-life for [O-][n+]1nc(CCCN2CCOCC2)[n+]([O-])c2cc3c(cc21)CCC3 , please?
Outgoing: 26.4

###

Measured half-life by item
# test.summary: in vivo
# applied.conditions: NIH-III, mouse, in vivo, ip, 186 mg/kg, Terminal T1/2, i.p. SN30000 186 mg/kg; liver, HT29 tumour-bearing mice
Write the value in min as a bare number.

Incoming: Recorded half-life for O=C(O)CCc1nc2cc3c(cc2[n+]([O-])n1)CCC3 [M18] , please?
Outgoing: 392

Incoming: Recorded half-life for [O-][n+]1nc(CCCN2CCOCC2)nc2cc3c(cc21)CCC3 [M14] , please?
Outgoing: 42.7

Incoming: Recorded half-life for [O-][n+]1nc(CCCN2CCOCC2)[n+]([O-])c2cc3c(cc21)CCC3 [SN30000] , please?
Outgoing: 35.7

###

# test.summary: Metabolite profile in plasma, liver and HT29 tumor after i.p. SN30000
# Assay type: in vivo, NIH-III mice
# applied.conditions: SN30000 186 mg/kg i.p., HT29 tumor
Measured Metabolite/SN30000 peak area, Tumor by item

Incoming: Recorded Metabolite/SN30000 peak area, Tumor for O=C(O)CCc1nc2cc3c(cc2[n+]([O-])n1)CCC3 [M18] , please?
Outgoing: 1.63

Incoming: Recorded Metabolite/SN30000 peak area, Tumor for [O-][n+]1nc(CCCN2CCOCC2)nc2cc3c(cc21)CCC3 [M14] , please?
Outgoing: 0.41

Incoming: Recorded Metabolite/SN30000 peak area, Tumor for O=C1COCCN1CCCc1nc2cc3c(cc2[n+]([O-])n1)CCC3 [M19] , please?
Outgoing: 0.02

Incoming: Recorded Metabolite/SN30000 peak area, Tumor for c1c2c(cc3nc(CCCN4CCOCC4)nnc13)CCC2 [M13] , please?
Outgoing: 0.11

###

# test.summary: in vivo
# applied.conditions: NIH-III nude, mouse, in vivo, iv, 1.86 mg/kg
test.readout: Cmax
Report the figure along with its unit, number first.

Incoming: Recorded Cmax for [O-][n+]1nc(CCCN2CCOCC2)[n+]([O-])c2cc3c(cc21)CCC3 , please?
Outgoing: 1860 nM

###

# test.summary: in vivo
# applied.conditions: female, NIH-III nude, mouse, plasma, ip, Cmax, co-administered with SN30000 1.86 mg/kg i.p.
test.readout: Cmax (µM)
Write the value in µM as a bare number.

Incoming: Recorded Cmax for OC[C@@H](O)[C@@H](O)[C@H](O)[C@H](O)CO [Mannitol, mannitol] , please?
Outgoing: 41.2

###

# test.summary: in vivo
# applied.conditions: NIH-III nude, mouse, in vivo, iv, 1.86 mg/kg
Measured AUC by item
Report the figure along with its unit, number first.

Worked examples follow.
INSERT INTO results (smiles_repr, result) VALUES
  ('[O-][n+]1nc(CCCN2CCOCC2)nc2cc3c(cc21)CCC3', '0.042 µM·h'),
  ('[O-][n+]1nc(CCCN2CCOCC2)[n+]([O-])c2cc3c(cc21)CCC3', '0.53 µM·h');

Then there is this compound:
Incoming: Recorded AUC for O=C(O)CCc1nc2cc3c(cc2[n+]([O-])n1)CCC3 , please?
Outgoing: 0.77 µM·h

###

# test.summary: in vivo
# applied.conditions: NIH-III, mouse, in vivo, ip, 186 mg/kg, Cmax, i.p. SN30000 186 mg/kg; plasma, HT29 tumour-bearing mice
test.readout: Cmax

INSERT INTO assay_data (smiles_repr, result) VALUES
  ('[O-][n+]1nc(CCCN2CCOCC2)[n+]([O-])c2cc3c(cc21)CCC3', '217 µM');

Then there is this compound:
Incoming: Recorded Cmax for O=C(O)CCc1nc2cc3c(cc2[n+]([O-])n1)CCC3 , please?
Outgoing: 139 µM
